Biological target: T1, MICB (human, UniProt Q29980 23-383)
T1 chain: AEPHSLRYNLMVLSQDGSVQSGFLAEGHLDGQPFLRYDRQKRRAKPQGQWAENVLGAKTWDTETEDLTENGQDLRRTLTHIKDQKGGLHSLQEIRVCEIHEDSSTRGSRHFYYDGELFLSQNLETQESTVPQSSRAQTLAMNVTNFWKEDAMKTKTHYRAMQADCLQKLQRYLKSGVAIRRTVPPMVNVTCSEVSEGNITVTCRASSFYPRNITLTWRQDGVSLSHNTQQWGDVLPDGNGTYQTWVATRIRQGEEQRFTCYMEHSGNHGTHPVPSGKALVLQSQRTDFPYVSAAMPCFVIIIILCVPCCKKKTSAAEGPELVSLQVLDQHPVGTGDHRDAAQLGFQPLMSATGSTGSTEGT
Assay: Carterra LSA SPR
Listed binders paired with reported pKd
Would you please state pKd, meaning minus log10 of the concentration in mol/L, as a bare number?

INSERT INTO results (binder, val) VALUES
  ('D103388_1C7 [MICA/B]_H0_D103388_1C7 [MICA/B]_L0 (antibody, V domains shown) VH: QVQLRQSGPGLGQPSQSLSITCTVFGFSLTNYGVHWVRQSPGKGLEWLGMIWNDGFTDFNAAFISRLSISKDNSKSQVFFKMNSLQPSDTAIYYCASPYFHYAMDYWGQGTSVTVSS VL: QIVLTQSPAIMSASLGERVTMTCTASSSVSSSYLHWYQQKPGSSPKLWIYSTSNLASGVPARFSGSGSGTSYSLTISSMEAEDAATYYCHQYHRSPFTFGSGTKLEIK', 8.64);

# input Please report the recorded pKd for D99136_2C11 [MICA/B]_H0_D99136_2C11 [MICA/B]_L0 (antibody, V domains shown) VH: DVQLQESGPGLVKPSQSLSLTCSVTGYSITSGYNWDWIRHSPGNKLEWMGYISYDGSTNYNPSLKNRISITRDTSKNQFFLKLNSVTTEDTATYYCASSYYRYFDYWGQGTTLTVSS VL: DVQMTQTTSSLSASLGDRVTISCSASQGISNYLNWFQQKPDGTVKLLIYYTSSLHSGVPSRFSGSGSGTDYSLTISNLEPEDIATYYCQQYTKLPWTFGGGTELEIK .
# output 8.59

# input Same lookup for 2E5 (antibody, V domains shown) VH: EVKLVESGGGLVQPGGSLKLSCATSGFTFSDYYMFWVRQTPEKRLEWVAYISEGGGSTYYPDTIKGRFTISRDNAKNTLYLQMSRLRSEDTAMYYCVRQRGAYNRYDDGRGFAYWGQGTLVTVSA VL: DVLMTQTPLSLPVSLGDQASISCRSSQSIVHSNGNTYLEWYLQKPGQSPKLLIYKVSNRFSGVPDRLSGSGSGTDFTLKISRGEAEDLGVYYCFQGSHVPWTFGGGTKLEIK , please.
# output 9.09

# input Check 2E12 (antibody, V domains shown) VH: QVQLQQSGAELVRPGTSVKVSCKASGYAFTNYLIEWVKQRPGQGLEWIGGINPGSGSTNYNEKFKGKATLTADKSSSTAYMQLSTLTFDDSAVYFCARLGGNYVDYWGQGTTLTVSS VL: DIQMTQSPASLSASVGETVTITCRASGNIHNYLAWYQQKQGKSPQLLVYNAKTLADGVPSRFSGSGSGTQYSLKINSLQPEDFGSYYCQHFWSTPRTFGGGTKLEIK too.
# output 8.33
